TARGET UNDER TEST: Alpha4Beta2 (Rattus norvegicus, UniProt P09483+P12390)
Construct: purchased NIMH Psychoactive Drug Screening Program (PDSP)
Sequence (P09483 31-630): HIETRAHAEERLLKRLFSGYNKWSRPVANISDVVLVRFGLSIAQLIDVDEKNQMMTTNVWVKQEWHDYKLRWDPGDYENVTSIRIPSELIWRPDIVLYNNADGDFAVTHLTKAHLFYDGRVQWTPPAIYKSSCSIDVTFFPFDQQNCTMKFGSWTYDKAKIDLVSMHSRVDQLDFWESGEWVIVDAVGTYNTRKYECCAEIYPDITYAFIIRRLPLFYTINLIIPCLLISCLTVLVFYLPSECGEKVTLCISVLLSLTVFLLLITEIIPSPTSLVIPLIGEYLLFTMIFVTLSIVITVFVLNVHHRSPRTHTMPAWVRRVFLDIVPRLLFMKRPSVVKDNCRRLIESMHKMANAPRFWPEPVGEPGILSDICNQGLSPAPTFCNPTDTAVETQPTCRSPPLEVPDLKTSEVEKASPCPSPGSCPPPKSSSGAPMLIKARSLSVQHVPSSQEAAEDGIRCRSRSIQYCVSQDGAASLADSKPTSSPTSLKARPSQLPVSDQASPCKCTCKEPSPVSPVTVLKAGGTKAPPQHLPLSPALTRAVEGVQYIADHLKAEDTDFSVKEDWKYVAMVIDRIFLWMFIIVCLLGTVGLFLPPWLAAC
Sequence (P12390 25-500): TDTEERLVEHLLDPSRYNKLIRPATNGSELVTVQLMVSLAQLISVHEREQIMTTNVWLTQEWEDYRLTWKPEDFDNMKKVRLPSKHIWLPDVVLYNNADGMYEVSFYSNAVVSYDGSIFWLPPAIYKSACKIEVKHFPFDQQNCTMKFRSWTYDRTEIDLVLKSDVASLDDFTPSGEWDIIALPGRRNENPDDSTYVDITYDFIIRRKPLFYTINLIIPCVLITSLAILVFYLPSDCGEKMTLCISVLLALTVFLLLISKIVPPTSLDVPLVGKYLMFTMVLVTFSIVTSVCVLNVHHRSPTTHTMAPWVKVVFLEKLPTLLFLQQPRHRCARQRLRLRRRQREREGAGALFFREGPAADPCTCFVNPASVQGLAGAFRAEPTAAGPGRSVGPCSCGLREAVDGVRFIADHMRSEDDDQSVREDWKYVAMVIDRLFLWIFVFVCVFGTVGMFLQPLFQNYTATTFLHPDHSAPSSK
TEST PROTOCOL: PDSP primary binding Alpha4Beta2
DETAILS: primary binding, 10,000 nM; last figure of the line = mean of the 4 before it; read-out: Alpha4Beta2, PDSP raw data, mean
Quick reference: inhibition at 10 µM of the listed items.
Your answer should be a plain number; it is taken to be in %.

ENTRY SMILES: C[C@H]1N=C(c2ccccc2F)c2cc(-c3ccccc3)ccc2-n2cnc(C(=O)N(C)C)c21
TARGET UNDER TEST: Alpha4Beta2 (Rattus norvegicus, UniProt P09483+P12390)
RESULT UNIT: %
inhibition at 10 µM: -1.65
//
ENTRY SMILES: CCc1noc(-c2ncn3c2[C@@H](C)N=C(c2ccccc2F)c2cc(Cl)ccc2-3)n1
TARGET UNDER TEST: Alpha4Beta2 (Rattus norvegicus, UniProt P09483+P12390)
RESULT UNIT: %
inhibition at 10 µM: -1.38
//
ENTRY SMILES: C#Cc1ccc2c(c1)C(c1ccccn1)=N[C@@H](C)c1c(C(=O)N(C)C)ncn1-2
TARGET UNDER TEST: Alpha4Beta2 (Rattus norvegicus, UniProt P09483+P12390)
RESULT UNIT: %
inhibition at 10 µM: -0.84
//
ENTRY SMILES: CC(C)c1noc(-c2ncn3c2[C@@H](C)N=C(c2ccccc2F)c2cc(Cl)ccc2-3)n1
TARGET UNDER TEST: Alpha4Beta2 (Rattus norvegicus, UniProt P09483+P12390)
RESULT UNIT: %
inhibition at 10 µM: 6.16
//
ENTRY SMILES: CCc1noc(-c2ncn3c2[C@@H](C)N=C(c2ccccc2F)c2cc(-c4ccccc4)ccc2-3)n1
TARGET UNDER TEST: Alpha4Beta2 (Rattus norvegicus, UniProt P09483+P12390)
RESULT UNIT: %
inhibition at 10 µM: 0.7

Determine its reported inhibition at 10 µM: `C#Cc1ccc2c(c1)C(c1ccccc1F)=N[C@H](C)c1c(C(=S)N(C)C)ncn1-2` -1.65

Report measured inhibition at 10 µM; entry is `CCc1noc(-c2ncn3c2[C@@H](C)N=C(c2ccccc2F)c2cc(C4CC4)ccc2-3)n1` 4.59

Note inhibition at 10 µM for the compound shown: `C#Cc1ccc2c(c1)C(c1ccccc1Cl)=N[C@H](C)c1c(C(=O)N(C)CC)ncn1-2` -1.16

Could you please provide reported inhibition at 10 µM for `C#Cc1ccc2c(c1)C(c1ccccn1)=N[C@@H](C)c1c(C(=O)NC)ncn1-2` ? Thanks! -4.27

Return inhibition at 10 µM for the following compound: `C#Cc1ccc2c(c1)C(c1ccccc1Cl)=N[C@H](C)c1c(C(=O)NC)ncn1-2` 4.88

Annotate the compound `CCc1noc(-c2ncn3c2CN=C(c2ccccc2F)c2cc(C4CC4)ccc2-3)n1` with its measured inhibition at 10 µM. -1.95

Determine its reported inhibition at 10 µM: `C[C@H]1N=C(c2ccccc2F)c2cc(Cl)ccc2-n2cnc(-c3nc(C4CC4)no3)c21` 1.67

* * *

TARGET UNDER TEST: D2 (Homo sapiens)
Construct: purchased NIMH Psychoactive Drug Screening Program (PDSP)
Sequence (P14416 whole entry): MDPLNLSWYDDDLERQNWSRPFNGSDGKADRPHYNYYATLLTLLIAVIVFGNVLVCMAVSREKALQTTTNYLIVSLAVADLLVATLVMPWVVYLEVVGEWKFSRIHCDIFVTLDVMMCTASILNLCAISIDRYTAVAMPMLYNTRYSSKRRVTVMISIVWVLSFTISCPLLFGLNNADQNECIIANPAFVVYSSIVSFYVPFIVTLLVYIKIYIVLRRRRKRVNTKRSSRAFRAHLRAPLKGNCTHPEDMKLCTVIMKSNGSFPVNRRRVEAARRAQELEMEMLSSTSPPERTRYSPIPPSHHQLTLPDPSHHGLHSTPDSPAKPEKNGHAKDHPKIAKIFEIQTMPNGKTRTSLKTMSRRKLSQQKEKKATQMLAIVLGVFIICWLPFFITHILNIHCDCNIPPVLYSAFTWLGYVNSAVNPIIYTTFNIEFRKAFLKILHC
TEST PROTOCOL: PDSP primary binding D2
DETAILS: 1.5 h; primary binding, 10,000 nM; last figure of the line = mean of the 4 before it; read-out: D2, PDSP raw data, mean
MEASURED ENDPOINT: inhibition at 10 µM (%)
State just the number; it will be interpreted in %.

Report inhibition at 10 µM, nothing else, for this molecule: CCc1noc(-c2ncn3c2[C@@H](C)N=C(c2ccccc2F)c2cc(Cl)ccc2-3)n1 [Compound 36] 3.17

Note down inhibition at 10 µM recorded for CCc1noc(-c2ncn3c2[C@@H](C)N=C(c2ccccc2F)c2cc(C4CC4)ccc2-3)n1 [Compound 46] 4.73

Read the entry C#Cc1ccc2c(c1)C(c1ccccc1Cl)=N[C@H](C)c1c(C(=O)N(C)CC)ncn1-2 [Compound 29] and write its reported inhibition at 10 µM. -1.58

Return inhibition at 10 µM (reported value) for this molecule: C#Cc1ccc2c(c1)C(c1ccccn1)=N[C@@H](C)c1c(C(=O)NC)ncn1-2 [Compound 23] -4.79

State its inhibition at 10 µM for this molecule: CCc1noc(-c2ncn3c2CN=C(c2ccccc2F)c2cc(C4CC4)ccc2-3)n1 [Compound 44] 0.67

Input C[C@H]1N=C(c2ccccc2F)c2cc(-c3ccccc3)ccc2-n2cnc(C(=O)N(C)C)c21 [Compound 5] , output reported inhibition at 10 µM. 0.27

Give the measured inhibition at 10 µM for CCc1noc(-c2ncn3c2[C@@H](C)N=C(c2ccccc2F)c2cc(-c4ccccc4)ccc2-3)n1 [Compound 35] 7.47

Retrieve inhibition at 10 µM measured for C#Cc1ccc2c(c1)C(c1ccccc1Cl)=N[C@H](C)c1c(C(=O)NC)ncn1-2 [Compound 21] and print it. -4.19
